Entry source: ChEMBL document CHEMBL4152355

Target: Amyloid-beta precursor protein (Homo sapiens)
Assay: Disaggregation of self-induced amyloid beta (1 to 40) (unknown origin) preformed fibrils assessed as aggregation level at 100 uM after 4 days by UV-visible turbidity method
Lab note - cut at 90% for Activity: fulfilled if strictly below, not fulfilled if not.

Worked examples follow.
## Task Quick check: Activity of Cl.Nc1ncnc2c1ncn2CCNCC/N=C/c1ccc(O)cc1O under 90%?
## Result not fulfilled

## Task Quick check: Activity of O=C(NCCNc1ccnc2cc(Cl)ccc12)c1cnccn1 under 90%?
## Result not fulfilled

## Task Quick check: Activity of Oc1ccc(/C=N/CCn2ccc3ccccc32)c(O)c1 under 90%?
## Result fulfilled

## Task Quick check: Activity of Oc1ccccc1/C=N/CCNc1ccnc2cc(Cl)ccc12 under 90%?
## Result not fulfilled

Let us examine a further case.
## Task Quick check: Activity of Cl.Oc1ccc(/C=N/CCNCCn2cnc3ccccc32)c(O)c1 under 90%?
## Result fulfilled
